Entry source: ChEMBL document CHEMBL1142099

tested on: KB; assay: Cytotoxicity against human KB cells; assay type: cell-based; settings: Homo sapiens, KB

{"molecule": "CC(C)=CCOc1ccc(C[C@H]2NC(=O)[C@@H](C)NC(=O)[C@@H](Cc3ccc(O)cc3)NC(=O)CNC(=O)[C@H](C)NC(=O)[C@H](Cc3ccccc3)OC2=O)cc1 [PAECILODEPSIPEPTIDE A]", "display.unit": "µM", "IC50": 5.9}
